- target: T1, synthesized A beta1-42 (UniProt P05067 672-713)
- T1 construct: domain: A beta1-42; spotted in the dot blot as the second of the two types of oligomers; also called A beta42 oligomer
- methodDescription: dot blot: peptide spotted on nitrocellulose (0.1 micro g/dot), hybridoma culture supernatant, HRP anti-mouse IgG, ECL
reportedProperty: binding result

AL-221 antibody (antibody, IgG2b, V domains shown) VH: QVTLKESGPGILKPSQTLSLTCSFSGFSLSTSGMGVGWIRQPSGKGLEWLAHIWWDDDKYYNPSLKSQLTISKDTSRNQVFLKITSVDTADTATYYCARRSLSRDYFDYWGQGTTLTVSS VL: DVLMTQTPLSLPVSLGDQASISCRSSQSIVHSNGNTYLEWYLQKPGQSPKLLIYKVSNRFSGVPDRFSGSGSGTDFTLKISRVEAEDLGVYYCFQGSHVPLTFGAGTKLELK = binds
AL-213 antibody (antibody, IgG2b, V domains shown) VH: QVQLKQSGPGLVQPSQSLSITCTVSGFSLTSYGVHWVRQSPGKGLEWLGVIWRGGSTDYNAAFMSRLSITKDNSKSQVFFKMNSLQADDTAIYYCANNRYERGGYYAMDYWGQGTSVTVSS VL: DVLMTQTPLSLPVSLGDQASISCRSSQSIVHSNGNTYLEWYLHKPGQSPKLLIYKVSNRFSGVPDRFSGSGSGTDFTLKISRVEAEDLGVYYCFQGSHVPLTFGAGTKLELK = binds
AL-206 antibody (antibody, IgG2b, V domains shown) VH: DVQLQESGPGLVKPSQSLSLACTVTGYSITSDYAWNWIRQFPGNKLEWLGYISYSGTTRYNPSLKSRISITRDTSKNQFFLQLNSVTTEDTATYYCAIYGSSYYWYFDVWGAGTTVTVSS VL: QIVLTQSPAIMSASLGERVTMTCTASSSVSSSYLHWYQQKPGSSPKLWIYSTSNLASGVPARFSGSGSGTSYSLTISSMEAEDAATYYCHQYHRSPPTFGAGTKLELK = binds
